TESTED_TARGET: HLA-B*27:20
METHOD: IEDB peptide-MHC binding, purified MHC/competitive/fluorescence; filed as Kd, often an IC50 or EC50 that approximates it; bounds were set here for any values at or beyond the usual limits of such assays
STUDY_CONDITIONS: source organism: human gammaherpesvirus 4
MEASURE: pKd
Keep it numeric: pKd is minus log10 of the concentration in mol/L.

-- ask Entry RRYASQTEL : reported pKd = ?
-- reply 9.70

###

TESTED_TARGET: HLA-A*26:01
METHOD: IEDB peptide-MHC binding, purified MHC/competitive/fluorescence; filed as Kd, often an IC50 or EC50 that approximates it; bounds were set here for any values at or beyond the usual limits of such assays
STUDY_CONDITIONS: source organism: Mycobacterium tuberculosis variant bovis BCG str. Pasteur 1173P2
MEASURE: Kd (nM)
I only need the number, in nM, no unit after it.

-- ask I'm curious: which Kd was measured for ATADLELAY tested on HLA-A*26:01?
-- reply 428

###

TESTED_TARGET: HLA-A*02:12
METHOD: IEDB peptide-MHC binding, purified MHC/direct/fluorescence; filed as Kd, often an IC50 or EC50 that approximates it; bounds were set here for any values at or beyond the usual limits of such assays
STUDY_CONDITIONS: source organism: Brucella suis 1330
MEASURE: Kd

-- ask Recorded Kd of MRIGSMATL , please.
-- reply ≥ 20 µM

###

TESTED_TARGET: HLA-A*66:01
METHOD: IEDB peptide-MHC binding, purified MHC/competitive/fluorescence; filed as Kd, often an IC50 or EC50 that approximates it; bounds were set here for any values at or beyond the usual limits of such assays
STUDY_CONDITIONS: source organism: Entamoeba histolytica HM-1:IMSS
MEASURE: Kd (nM)
Answer with a number only, understood to be in nM.

-- ask Any idea what its Kd is? The sequence is EVRKAIEFV
-- reply 279

###

TESTED_TARGET: HLA-C*07:02
METHOD: IEDB peptide-MHC binding, purified MHC/direct/fluorescence; filed as Kd, often an IC50 or EC50 that approximates it; bounds were set here for any values at or beyond the usual limits of such assays
STUDY_CONDITIONS: source organism: Influenza A virus (A/Fort Monmouth/1/1947-mouse adapted(H1N1))
MEASURE: Kd

-- ask Notebook: pull reported Kd for HLA-C*07:02, entry MQIRGFVYF
-- reply ≥ 20 µM

###

TESTED_TARGET: HLA-A*11:01
METHOD: IEDB peptide-MHC binding, purified MHC/direct/fluorescence; filed as Kd, often an IC50 or EC50 that approximates it; bounds were set here for any values at or beyond the usual limits of such assays
STUDY_CONDITIONS: source organism: SARS-CoV1
Kindly state Kd for each of the entries shown.

-- ask May I ask what Kd has been recorded for FRYMNSQGL ?
-- reply ≥ 21.9 µM

-- ask Moving on to GTDSGFAAY
-- reply 0.103 µM

-- ask Now try KMKELSPRW .
-- reply ≥ 30.2 µM

###

TESTED_TARGET: HLA-A*03:01
METHOD: IEDB peptide-MHC binding, purified MHC/competitive/fluorescence; filed as Kd, often an IC50 or EC50 that approximates it; bounds were set here for any values at or beyond the usual limits of such assays
STUDY_CONDITIONS: source organism: Fowlpox virus
MEASURE: Kd

-- ask May I ask what Kd has been recorded for VIMWYNYLF ?
-- reply ≥ 20 µM

###

TESTED_TARGET: HLA-A*69:01
METHOD: IEDB peptide-MHC binding, purified MHC/direct/fluorescence; filed as Kd, often an IC50 or EC50 that approximates it; bounds were set here for any values at or beyond the usual limits of such assays
STUDY_CONDITIONS: source organism: Pseudomonas aeruginosa
pKd: −log10 of the molar value.
MEASURE: pKd

-- ask # returns recorded pKd (system: HLA-A*69:01) for SEYKAAGYL
-- reply ≤ 4.70

-- ask Please give the result for GEDDDMLPW too.
-- reply ≤ 4.70

###

TESTED_TARGET: HLA-A*29:02
METHOD: IEDB peptide-MHC binding, purified MHC/competitive/radioactivity; filed as Kd, often an IC50 or EC50 that approximates it; bounds were set here for any values at or beyond the usual limits of such assays
STUDY_CONDITIONS: source organism: Mammarenavirus whitewaterense
MEASURE: Kd (nM)
Number in nM, nothing else.

-- ask Field request: Kd | item: IYQPESQKF
-- reply 412

###

TESTED_TARGET: HLA-A*68:01
METHOD: IEDB peptide-MHC binding, purified MHC/competitive/radioactivity; filed as Kd, often an IC50 or EC50 that approximates it; bounds were set here for any values at or beyond the usual limits of such assays
STUDY_CONDITIONS: source organism: Vaccinia virus WR
MEASURE: pKd
Bear in mind: pKd is minus log10 of a mol/L concentration; give just that figure.

-- ask Which value of pKd has been reported for LLSINSSFY in the records?
-- reply 5.46

-- ask Would you kindly repeat that for DVHPGEPVVK ?
-- reply 7.24

-- ask Then DAEACYIYK ?
-- reply 7.31

-- ask Now this one: ELGIAIFNNR
-- reply 7.39

-- ask // repeat for LSVETITEK and report
-- reply 6.58

-- ask What do we get for RTFNEDLFR ?
-- reply 7.65

-- ask # repeat for GSIKIKQDVR
-- reply 6.60

-- ask Could you do the same for FIRIIRPDY , please?
-- reply 5.51

-- ask Follow-up entry: EFVMCLEAK
-- reply 6.57

-- ask How about SILARRPTPK ?
-- reply 6.83

-- ask Queued: YLKNYKNFDY
-- reply 5.14

-- ask Queued: RIVTVTTKDY
-- reply 5.81

-- ask Do the same for TFKIDAVRY please
-- reply 5.72

-- ask Same read-out for FMRFFQLLR ?
-- reply 7.93

-- ask What would you report for TSKTTILSK ?
-- reply 5.95

-- ask Further, for MTIREFPRK ?
-- reply 8.21

-- ask Okay, and AISAVYFKAK ?
-- reply 5.60

-- ask Item: GMLIYSMWGK
-- reply 7.26

-- ask Again, but for LLYAAEMVEY
-- reply 8.03

-- ask Now consider LSFSNTIQSY and answer again.
-- reply 5.33

###

TESTED_TARGET: HLA-B*08:01
METHOD: IEDB peptide-MHC binding, purified MHC/direct/fluorescence; filed as Kd, often an IC50 or EC50 that approximates it; bounds were set here for any values at or beyond the usual limits of such assays
STUDY_CONDITIONS: source organism: Salmonella enterica
pKd: −log10 of the molar value.
MEASURE: pKd

-- ask Bench note: what pKd did EEQTDPKTL show?
-- reply ≤ 4.70

###

TESTED_TARGET: HLA-B*58:01
METHOD: IEDB peptide-MHC binding, purified MHC/direct/fluorescence; filed as Kd, often an IC50 or EC50 that approximates it; bounds were set here for any values at or beyond the usual limits of such assays
STUDY_CONDITIONS: source organism: Campylobacter jejuni
MEASURE: Kd (nM)
# output: bare number, implied unit nM

-- ask Find the recorded Kd belonging to KSNEKNMDF and report it.
-- reply 63

###

TESTED_TARGET: HLA-A*11:01
METHOD: IEDB peptide-MHC binding, purified MHC/competitive/radioactivity; filed as Kd, often an IC50 or EC50 that approximates it; bounds were set here for any values at or beyond the usual limits of such assays
STUDY_CONDITIONS: source organism: SARS coronavirus Tor2
Criterion: Kd strictly under 20 nM. Met: True. Not met: False.

-- ask Hello, is Kd of the following sequence strictly smaller than 20 nM? TMADLVYALR
-- reply False

-- ask TVSALVYDNK , same question.
-- reply False

-- ask Same question, AANTVIWDY this time
-- reply False

-- ask What do you have for SSYSLFDMSK ?
-- reply True

-- ask Then NVAYNVVNK ?
-- reply False

-- ask Next record, please: MLPPCYNFLK
-- reply True

-- ask Item: IVPFWITAIY
-- reply False

-- ask Entry to check: VQMLSDTLK
-- reply True

-- ask How about LMPILTLTR ?
-- reply False

-- ask Now consider TTEMLSRALK and answer again.
-- reply False

###

TESTED_TARGET: HLA-A*01:01
METHOD: IEDB peptide-MHC binding, purified MHC/competitive/radioactivity; filed as Kd, often an IC50 or EC50 that approximates it; bounds were set here for any values at or beyond the usual limits of such assays
STUDY_CONDITIONS: source organism: Mammarenavirus choriomeningitidis
MEASURE: pKd
pKd (log units): -log10 of the concentration in mol/L.

-- ask // query pKd value for entry WCSQTNYQY
-- reply 6.02
